# study.system: TSH receptor of isolated porcine thyroid cells (porcine, UniProt Q8SPP9 22-764)
# Sequence (Q8SPP9 22-764): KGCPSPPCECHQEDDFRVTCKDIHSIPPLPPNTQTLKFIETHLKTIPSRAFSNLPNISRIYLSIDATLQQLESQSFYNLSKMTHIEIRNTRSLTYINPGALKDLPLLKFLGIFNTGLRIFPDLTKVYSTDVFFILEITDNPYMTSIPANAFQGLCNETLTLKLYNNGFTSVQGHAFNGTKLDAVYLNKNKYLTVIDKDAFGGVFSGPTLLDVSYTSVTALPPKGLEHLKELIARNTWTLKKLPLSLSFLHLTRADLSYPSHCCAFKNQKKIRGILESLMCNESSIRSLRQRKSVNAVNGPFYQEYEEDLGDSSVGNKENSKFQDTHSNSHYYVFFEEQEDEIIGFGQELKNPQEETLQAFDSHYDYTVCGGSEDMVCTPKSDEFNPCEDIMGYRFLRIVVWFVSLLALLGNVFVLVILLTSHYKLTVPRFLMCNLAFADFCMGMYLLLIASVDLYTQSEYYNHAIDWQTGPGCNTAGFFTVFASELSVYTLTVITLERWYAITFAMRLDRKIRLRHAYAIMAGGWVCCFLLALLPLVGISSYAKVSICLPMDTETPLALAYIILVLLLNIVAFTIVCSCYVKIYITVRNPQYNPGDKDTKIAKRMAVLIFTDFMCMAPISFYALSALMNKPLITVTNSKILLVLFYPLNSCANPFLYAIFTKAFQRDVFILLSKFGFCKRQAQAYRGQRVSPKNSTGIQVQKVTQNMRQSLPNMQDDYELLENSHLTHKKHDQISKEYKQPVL
# method.description: cell-based or functional assay
experimental.readout: Stimulation (%) of cyclic AMP, isolated porcine thyroid cells; 20 µg/ml
Answer with a number only, understood to be in %.

Query :: Give the value of Stimulation (%) of cyclic AMP, isolated porcine thyroid cells; 20 µg/ml reported for the following: 3B3 IgG (antibody, V domains shown) VH: DVQLQQPGAELVKPGASVKLSCTTSGVNIKDTYMHWMKQRPEQGLEWIGRIDPANGNTKYDPKFRGKATITADTSSNTVYVQLRSLTSEDTAVYYCAYDGYWGQGTLVTVSA VL: NIVMTQTPASLAVSLGQRATISCRASESVDSYGNNFMHWYQQKPGQSPRLLIYRASNLESGIPARFSGSGSRTDFTLTTNPVEADDVATYYCQQSHKDPLTFGAGTKLELK
Result :: 37

Query :: Read the entry 16E5 IgG (antibody, V domains shown, not shown: a dimerising Fc or GST, mouse monoclonal IgG; also called MAb 16E5) VH: DVQLVQSGPELVKPGASVKMSCKASGYSFTGYNMHWVKQSHGKSLEWIGYIDPYNGATSYNQKFEDKATLTVDKSSSTAYMQLNSLTSEDSAVYYCARRWDWDPYAMDYWGQGTSVTVSS VL: DILLTQSPAILSVSPGERVSFSCRASQSIGTSIHWYQQRTNGSPRLLIKYASESISGIFSRFSGSGSGTDFTLTINSVESEDIADYYCQQSNRWPLTFGAGTKLELKR and write its reported Stimulation (%) of cyclic AMP, isolated porcine thyroid cells; 20 µg/ml.
Result :: 332
